B1: Twister Ribozyme (parent)
chain: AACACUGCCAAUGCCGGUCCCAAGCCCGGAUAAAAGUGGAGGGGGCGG

variants of: B1; test: self-cleavage, relative activity (ratio to wild type); higher = more cleavage; co-transcriptional
Decision: self-cleavage compared against 0.2; not below it gives Fulfilled, below it gives Not fulfilled.

-- ask Say whether G28C A33U shows self-cleavage of 0.2 or more.
-- reply Fulfilled

-- ask Entry A4U G45U please
-- reply Not fulfilled

-- ask Entry G43C C46A please
-- reply Not fulfilled

-- ask Entry A10G A22G please
-- reply Fulfilled

-- ask Entry G16U U18G please
-- reply Not fulfilled

-- ask Entry C9U G48C please
-- reply Fulfilled

-- ask Entry G13A A23U please
-- reply Not fulfilled

-- ask Entry A32G G43A please
-- reply Fulfilled

-- ask Entry A23C C46A please
-- reply Not fulfilled

-- ask Entry C5U C27U please
-- reply Fulfilled

-- ask Entry C20A G48U please
-- reply Not fulfilled

-- ask Entry A10G G42U please
-- reply Fulfilled

-- ask Entry C5A G41U please
-- reply Not fulfilled

-- ask Entry G24C G44C please
-- reply Not fulfilled

-- ask Entry C21A G24U please
-- reply Not fulfilled

-- ask Entry C15A U18G please
-- reply Not fulfilled

-- ask Entry C15U C25G please
-- reply Fulfilled

-- ask Entry U12A G17U please
-- reply Fulfilled

-- ask Entry A22U G41A please
-- reply Not fulfilled

-- ask Entry U12C G24U please
-- reply Not fulfilled

-- ask Entry C21U G24U please
-- reply Not fulfilled

-- ask Entry G44U C46A please
-- reply Fulfilled

-- ask Entry C8G U37G please
-- reply Not fulfilled

-- ask Entry A22U G48A please
-- reply Fulfilled

-- ask Entry G16U A32G please
-- reply Fulfilled

-- ask Entry G7A A10C please
-- reply Fulfilled

-- ask Entry G7A G43C please
-- reply Not fulfilled

-- ask Entry G38A G45C please
-- reply Fulfilled

-- ask Entry A10G C25G please
-- reply Fulfilled

-- ask Entry C25U G44A please
-- reply Fulfilled

-- ask Entry A40C G42U please
-- reply Not fulfilled

-- ask Entry G13A G43C please
-- reply Not fulfilled

-- ask Entry C21U G44U please
-- reply Not fulfilled

-- ask Entry A1U A4C please
-- reply Not fulfilled

-- ask Entry A10U G44U please
-- reply Fulfilled

-- ask Entry U6C C46A please
-- reply Fulfilled

-- ask Entry A2U C26U please
-- reply Not fulfilled

-- ask Entry A22U A23G please
-- reply Not fulfilled

-- ask Entry G42U G47C please
-- reply Fulfilled

-- ask Entry U18G A35G please
-- reply Not fulfilled

-- ask Entry C14U G28C please
-- reply Fulfilled

-- ask Entry C21G G36C please
-- reply Not fulfilled

-- ask Entry G17U G47C please
-- reply Not fulfilled

-- ask Entry U31G G45A please
-- reply Fulfilled

-- ask Entry C5G G28U please
-- reply Fulfilled

-- ask Entry A40U G41C please
-- reply Not fulfilled

-- ask Entry C15G A22C please
-- reply Not fulfilled

-- ask Entry C9A A35U please
-- reply Fulfilled

-- ask Entry A4U C9U please
-- reply Not fulfilled

-- ask Entry U6A G38U please
-- reply Not fulfilled

-- ask Entry A1G C46A please
-- reply Fulfilled

-- ask Entry G13C C27A please
-- reply Not fulfilled

-- ask Entry A32U G39C please
-- reply Not fulfilled

-- ask Entry G28C G42A please
-- reply Not fulfilled

-- ask Entry G7A G24U please
-- reply Not fulfilled

-- ask Entry A10G G13U please
-- reply Fulfilled

-- ask Entry A11C C46U please
-- reply Fulfilled

-- ask Entry A40C G48A please
-- reply Not fulfilled

-- ask Entry U37G G45A please
-- reply Fulfilled

-- ask Entry A34C A35U please
-- reply Fulfilled

-- ask Entry G16C G42A please
-- reply Not fulfilled

-- ask Entry U6A A32G please
-- reply Fulfilled

-- ask Entry G28U G48A please
-- reply Fulfilled

-- ask Entry A34G G38U please
-- reply Fulfilled

-- ask Entry A11C G41C please
-- reply Fulfilled

-- ask Entry G7C G16C please
-- reply Not fulfilled

-- ask Entry G29C G36A please
-- reply Not fulfilled

-- ask Entry A33U A40C please
-- reply Fulfilled

-- ask Entry C21U C46A please
-- reply Not fulfilled

-- ask Entry A2C G48A please
-- reply Not fulfilled

-- ask Entry C3A C9G please
-- reply Fulfilled

-- ask Entry C8G G48U please
-- reply Fulfilled

-- ask Entry C14A U18A please
-- reply Fulfilled

-- ask Entry C14A U37G please
-- reply Fulfilled

-- ask Entry G29U A34G please
-- reply Fulfilled

-- ask Entry C20A G38A please
-- reply Not fulfilled

-- ask Entry G17C G29A please
-- reply Not fulfilled

-- ask Entry C21A G41C please
-- reply Fulfilled

-- ask Entry A1C U37G please
-- reply Fulfilled

-- ask Entry C15U C46A please
-- reply Fulfilled

-- ask Entry `C5U` please
-- reply Fulfilled

-- ask Entry C20G A23C please
-- reply Not fulfilled

-- ask Entry U31G G39A please
-- reply Fulfilled

-- ask Entry G7C G29C please
-- reply Not fulfilled

-- ask Entry C5G A33U please
-- reply Fulfilled

-- ask Entry A22C G41A please
-- reply Fulfilled

-- ask Entry A22G A32U please
-- reply Fulfilled

-- ask Entry G28C G36U please
-- reply Not fulfilled

-- ask Entry G13C G17C please
-- reply Not fulfilled
